// data source = paper PMC6352951

# target_entity: Human recombinant MAGL (Homo sapiens, UniProt Q99685)
# Construct: purchased Cayman Chemical
# Sequence (Q99685 whole entry): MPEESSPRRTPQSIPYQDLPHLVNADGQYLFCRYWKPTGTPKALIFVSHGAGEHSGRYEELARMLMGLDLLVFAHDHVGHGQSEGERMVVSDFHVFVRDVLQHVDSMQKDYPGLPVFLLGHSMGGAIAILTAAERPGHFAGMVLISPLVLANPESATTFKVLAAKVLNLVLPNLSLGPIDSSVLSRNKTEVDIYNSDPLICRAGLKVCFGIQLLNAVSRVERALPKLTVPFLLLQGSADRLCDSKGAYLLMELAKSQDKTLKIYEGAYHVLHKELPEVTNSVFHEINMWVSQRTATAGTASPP
# test_method_notes: MAGL inhibition assay (4-NPA substrate, absorbance at 405 nm)
# Format: biochemical
# cond: in the presence of 10 μM DTT; read-out: MAGL inhibition IC50 in the presence of DTT
# Protocol: Compounds 1–3 were purchased from ChemBridge corporation, whereas compounds 4 and 5 were synthesized. Human recombinant MAGL, 4-nitrophenyl acetate substrate (4-NPA) and CAY10499 were purchased from Cayman Chemical. […] The final concentration of the analyzed compounds ranged from 10 to 0.00001 µM for CAY10499 and from 200 to 0.0128 µM for the other compounds. After the reaction had proceeded for 30 min, absorbance values were then measured by using a VictorX3 PerkinElmer instrument at 405 nm. […]
metric: pIC50
Lab note — pIC50 values are minus log10 of concentrations in M.

Query: Can you look up the measured pIC50 of O=C(c1ccc(-c2cccc3ccc(O)cc23)cc1)N1CCN(c2cccc(Cl)c2)CC1 [compound 4] for me?
Response: 5.21
